- target_under_test: Glucagon receptor (Mus musculus, UniProt Q61606)
- Sequence (Q61606 whole entry): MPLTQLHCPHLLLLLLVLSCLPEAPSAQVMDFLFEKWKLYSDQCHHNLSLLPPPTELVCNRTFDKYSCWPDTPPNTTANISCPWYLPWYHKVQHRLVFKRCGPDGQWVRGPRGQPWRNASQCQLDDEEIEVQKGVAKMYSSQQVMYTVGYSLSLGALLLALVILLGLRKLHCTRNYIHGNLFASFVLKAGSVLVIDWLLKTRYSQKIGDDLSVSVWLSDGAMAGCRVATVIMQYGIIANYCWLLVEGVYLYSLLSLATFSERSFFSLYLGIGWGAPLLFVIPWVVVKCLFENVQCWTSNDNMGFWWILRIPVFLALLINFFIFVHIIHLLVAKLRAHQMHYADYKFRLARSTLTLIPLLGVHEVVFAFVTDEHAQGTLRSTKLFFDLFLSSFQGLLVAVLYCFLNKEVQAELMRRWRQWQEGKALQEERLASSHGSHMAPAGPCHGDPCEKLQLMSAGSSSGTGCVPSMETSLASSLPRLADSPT
- test_protocol: Binding affinity towards glucagon receptor determined by reduction in binding of [125I]glucagon to the murine glucagon receptor (GGR) expressed on CHO cells in absence of Mg+2
- Assay type: cell-based
quantity_kind: IC50

- input_smiles: "Clc1ccc(-c2ccc(-c3ccncc3)[nH]2)cc1"
  target_under_test: "Glucagon receptor (Mus musculus, UniProt Q61606)"
  meas_value: "700 nM"
- input_smiles: "CC(C)COc1ccccc1-c1cc(-c2ccc(Cl)cc2)[nH]c1-c1ccncc1"
  target_under_test: "Glucagon receptor (Mus musculus, UniProt Q61606)"
  meas_value: "150 nM"
- input_smiles: "Fc1ccc(-c2cc(-c3cccc(Cl)c3)[nH]c2-c2ccncc2)cc1"
  target_under_test: "Glucagon receptor (Mus musculus, UniProt Q61606)"
  meas_value: "460 nM"
- input_smiles: "CC(C)Oc1ccccc1-c1cc(-c2ccc(Cl)cc2)[nH]c1-c1ccncc1"
  target_under_test: "Glucagon receptor (Mus musculus, UniProt Q61606)"
  meas_value: "700 nM"
- input_smiles: "N#Cc1ccc(-c2cc(-c3ccc(F)cc3)c(-c3ccncc3)[nH]2)cc1"
  target_under_test: "Glucagon receptor (Mus musculus, UniProt Q61606)"
  meas_value: "230 nM"
